# measured_target: unrelated Fc-fused recombinant protein
# test_protocol: ELISA, negative control Fc protein
measurement_name: ELISA Fc Control (RLU)

binder	ELISA Fc Control (RLU)
ISOP193ER9P1H3 (designed binder, not shown: small tags and cut ends) LPAPKNLVVSRVTEDSARLSWTAPDAAFDSFEIYYLEVRNRGEAIVLTVPGSERSYDLTGLKPGTEYHVGIAGVKGGFHSFPLSAIFTT	1520
ISOP193FR9P1C9 (designed binder, not shown: small tags and cut ends) LPAPKNLVVSRVTEDSARLSWTAPDAAFDSFQIYYFEWVVGGEAIVLTVPGSERSYDLTGLKPGTEYLVTIYGVKGCDWSDPLSAIFTT	21000

I: ISOP193BR9P1B10 (designed binder, not shown: small tags and cut ends) LPAPKNLVVSRVTEDSARLSWAWNRHDFDSFLIQYQESEKVGEAIVLTVPGSERSYDLTGLKPGTEYTVSIYGVHWTVLRPFIDSNPLSAIFTT
II: ISOP193AR9P1G8 (designed binder, not shown: small tags and cut ends) LPAPKNLVVSRVTEDSARLSWHATFGDPFDSFLIQYQESEKVGEAIVLTVPGSERSYDLTGLKPGTEYTVSIYGVGRHYTVYDSNPLSAIFTT
Problem: Given the entries I and II , determine which has the lower reported ELISA Fc Control (RLU). Please respond with the label that marks your chosen entry. II

Taken from patent US20220259289A1.
